Record type: Kd measurement. Applies to: MTOR_h (Homo sapiens (Human), UniProt P42345)
Just the number please, in µM, no unit attached.

compound: Cc1c(Cc2c(COC(=O)C(C)N)nc3c(N)cc(N4CCOCC4)nn23)cccc1C(F)(F)F (stereo not shown) [Compound 84]
unit name: µM
Kd: 7.94

compound: Cc1c(Cc2c(CO)nc3c(N)cc(N4CCOCC4)nn23)cccc1C(F)(F)F [Compound 14a]
unit name: µM
Kd: 6.76

compound: Cc1c(Nc2c(CO)nc3c(C(N)=O)cc(N4CCOCC4)nn23)cccc1C(F)(F)F [Compound 37]
unit name: µM
Kd: 3.24

Next compound, Kd to be filled in.
Q: Tell me reported Kd for Cc1nc2c(-c3cnc[nH]3)cc(N3CCOCC3)nn2c1Nc1cccc2c1CNCC2 [Compound 42] , tested with MTOR_h (Homo sapiens (Human), UniProt P42345).
Ans: 1.45

====

Parameter pIC50: see the listing below.
System: Akt phosphorylated at Thr308 in PC-3 cells
Assay: Cellular assay: phosphorylation of Akt (Thr308) in PC-3 cells, MSD ELISA
Format: cell-based
Conditions: Homo sapiens, PC-3, 1 h, 60 min incubation with compound, read-out: IC50 pAkt_Thr308
Remember, pIC50 is on a log scale: it is -log10 of the molar concentration.

Consider the following illustrative entries.
compound: Cc1nc2c(N)cc(N3CCOCC3)nn2c1Nc1cccc(C(F)(F)F)c1CN1CC(S(C)(=O)=O)C1
measurement name: pIC50
numeric result: 7.26
//
compound: Cc1nc2c(N)cc(N3CCOCC3)nn2c1Nc1cccc(C(F)(F)F)c1CN1CCC(S(C)(=O)=O)C1 (centres unmarked)
measurement name: pIC50
numeric result: 7.36
//
compound: Cc1nc2c(N)cc(N3CCOCC3)nn2c1Cc1cccc2c1CNCC2
measurement name: pIC50
numeric result: 7.09

Kindly consider the entry below.
Q: // lookup pIC50 for Cc1nc2c(N)cc(N3CCOCC3)nn2c1Nc1cccc(C(F)(F)F)c1CNC(C)CO (centres unmarked)
Ans: 8.15

====

Entries and their pKd values follow.
Target: PIK3Cβ_h (Homo sapiens (Human))
Sequence (P42338 whole entry): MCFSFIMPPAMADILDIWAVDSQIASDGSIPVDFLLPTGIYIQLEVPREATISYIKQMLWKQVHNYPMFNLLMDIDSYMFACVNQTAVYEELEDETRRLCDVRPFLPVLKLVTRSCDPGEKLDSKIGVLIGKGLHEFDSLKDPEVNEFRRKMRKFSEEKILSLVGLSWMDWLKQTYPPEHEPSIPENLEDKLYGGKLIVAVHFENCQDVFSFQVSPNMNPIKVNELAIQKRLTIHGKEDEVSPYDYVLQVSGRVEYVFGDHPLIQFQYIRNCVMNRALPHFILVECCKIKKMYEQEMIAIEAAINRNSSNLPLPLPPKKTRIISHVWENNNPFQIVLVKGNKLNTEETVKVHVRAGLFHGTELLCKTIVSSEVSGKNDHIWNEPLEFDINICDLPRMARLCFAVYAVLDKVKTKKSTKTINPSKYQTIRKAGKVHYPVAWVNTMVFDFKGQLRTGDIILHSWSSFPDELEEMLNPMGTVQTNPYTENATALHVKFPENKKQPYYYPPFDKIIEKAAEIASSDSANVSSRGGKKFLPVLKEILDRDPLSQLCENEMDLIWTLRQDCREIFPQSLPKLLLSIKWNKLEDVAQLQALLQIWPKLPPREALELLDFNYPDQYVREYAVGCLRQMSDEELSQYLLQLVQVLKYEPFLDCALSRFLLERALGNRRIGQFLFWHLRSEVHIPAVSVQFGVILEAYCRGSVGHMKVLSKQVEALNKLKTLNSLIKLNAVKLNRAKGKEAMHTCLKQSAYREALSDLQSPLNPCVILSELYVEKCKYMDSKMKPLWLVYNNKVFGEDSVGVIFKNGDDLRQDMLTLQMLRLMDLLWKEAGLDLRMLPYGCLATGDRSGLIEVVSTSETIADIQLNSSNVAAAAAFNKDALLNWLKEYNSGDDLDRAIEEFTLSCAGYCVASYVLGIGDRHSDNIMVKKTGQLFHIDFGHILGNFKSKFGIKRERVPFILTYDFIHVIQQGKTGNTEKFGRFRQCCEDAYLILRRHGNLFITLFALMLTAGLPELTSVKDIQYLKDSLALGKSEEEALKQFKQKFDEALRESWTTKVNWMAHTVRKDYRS
Scale for pKd: -log10 of concentration given in mol/L; no unit attached.

molecule: Cc1c(Cc2c(C(C)O)nc3c(N)cc(N4CCOCC4)nn23)cccc1C(F)(F)F (stereo not shown)
pKd: 8.74
//
molecule: Cc1nc2c(N)cc(N3CCOCC3)nn2c1Nc1cccc(C(F)(F)F)c1C1CCN(CCO)CC1
pKd: 9.52
//
molecule: Cc1c(Cl)cccc1Cc1c(CO)nc2c(-c3c[nH]cn3)cc(N3CCOCC3)nn12
pKd: 9.30

Could you now look at the following molecule, please?
Q: Which pKd is listed for Cc1nc2c(C(N)=O)cc(N3CCOCC3)nn2c1Nc1cccc(C(F)(F)F)c1C ?
Ans: 8.40

====

Target: PIK3Cδ_h (Homo sapiens (Human))
Sequence (O00329 whole entry): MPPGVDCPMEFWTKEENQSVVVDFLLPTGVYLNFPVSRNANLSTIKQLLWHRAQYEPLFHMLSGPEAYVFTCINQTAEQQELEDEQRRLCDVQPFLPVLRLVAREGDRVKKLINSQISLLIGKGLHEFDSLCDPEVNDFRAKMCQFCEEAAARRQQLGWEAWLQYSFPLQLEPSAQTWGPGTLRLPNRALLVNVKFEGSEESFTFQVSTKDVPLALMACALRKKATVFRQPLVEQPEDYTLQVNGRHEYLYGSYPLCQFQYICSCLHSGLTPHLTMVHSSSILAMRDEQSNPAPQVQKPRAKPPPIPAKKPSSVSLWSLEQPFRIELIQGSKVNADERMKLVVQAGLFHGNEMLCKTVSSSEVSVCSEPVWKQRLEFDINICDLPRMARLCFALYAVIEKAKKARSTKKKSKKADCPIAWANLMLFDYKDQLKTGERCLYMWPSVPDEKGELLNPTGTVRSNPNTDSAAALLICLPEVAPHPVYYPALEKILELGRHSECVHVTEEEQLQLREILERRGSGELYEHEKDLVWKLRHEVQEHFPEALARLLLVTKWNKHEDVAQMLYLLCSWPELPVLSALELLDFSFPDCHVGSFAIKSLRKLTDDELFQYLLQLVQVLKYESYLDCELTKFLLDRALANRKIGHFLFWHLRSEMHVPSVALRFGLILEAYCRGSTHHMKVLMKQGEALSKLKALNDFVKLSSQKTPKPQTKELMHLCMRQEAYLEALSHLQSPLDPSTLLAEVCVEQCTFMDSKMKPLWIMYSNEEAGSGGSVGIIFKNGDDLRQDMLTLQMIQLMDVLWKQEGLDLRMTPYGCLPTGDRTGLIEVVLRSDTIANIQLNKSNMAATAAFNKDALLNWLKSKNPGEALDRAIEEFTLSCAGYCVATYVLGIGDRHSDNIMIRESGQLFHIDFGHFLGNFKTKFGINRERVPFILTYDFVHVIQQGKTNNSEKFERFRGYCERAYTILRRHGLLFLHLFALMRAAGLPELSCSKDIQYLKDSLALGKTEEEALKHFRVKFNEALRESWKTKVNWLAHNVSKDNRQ
With a cut-off of 0.1 µM, any Kd strictly below it is called TRUE; any Kd meeting it or above is called FALSE.

molecule: Cc1c(Cc2c(CCO)nc3c(-c4c[nH]cn4)cc(N4CCOCC4)nn23)cccc1C(F)(F)F
assigned label: FALSE
--
molecule: Cc1nc2c(N)cc(N3CCOCC3)nn2c1Nc1cccc(F)c1CN1CCOCC1
assigned label: TRUE
--
molecule: Cc1nc2c(N)cc(N3CCOCC3)nn2c1Cc1cccc(F)c1CNC(C)CO (centres unmarked)
assigned label: FALSE
--
molecule: Cc1c(Cc2c(C(C)O)nc3c(-c4c[nH]cn4)cc(N4CCOCC4)nn23)cccc1C(F)(F)F (centres unmarked)
assigned label: FALSE
--
molecule: Cc1nc2c(-c3cnc[nH]3)cc(N3CCOCC3)nn2c1Cc1cccc(C(F)(F)F)c1C
assigned label: FALSE
--
molecule: Cc1c(Cc2c(CNCCO)nc3c(-c4ncc[nH]4)cc(N4CCOCC4)nn23)cccc1C(F)(F)F
assigned label: TRUE
--
molecule: Cc1nc2c(N)cc(N3CCOCC3)nn2c1Nc1cccc(C(F)(F)F)c1CN1CCC2(C1)CS(=O)(=O)C2
assigned label: FALSE

Could you now look at the following molecule, please?
Q: Hi there! Is Kd for Cc1nc2c(N)cc(N3CCOCC3)nn2c1Nc1cccc(C(F)(F)F)c1CNC(C)CO (centres unmarked) [Compound 56] below 0.1 µM, do you know?
Ans: TRUE

====

The following are reported Kd results, target or system PIK3Cδ_h (Homo sapiens (Human)).
Give just the numeric value; µM need not be written.

Recorded results for 3 compounds are shown here.
compound: Cc1c(Cc2c(C(C)O)nc3c(N)cc(N4CCOCC4)nn23)cccc1C(F)(F)F (stereo not shown) [Compound 32]
numeric result: 0.355
--
compound: Cc1nc2c(C(=O)O)cc(N3CCOCC3)nn2c1Cc1cccc(C(F)(F)F)c1C [Compound 9]
numeric result: 0.174
--
compound: Cc1nc2c(-c3cnc[nH]3)cc(N3CCOCC3)nn2c1Nc1cccc(C(F)(F)F)c1CN1CC(O)C1 [Compound 46]
numeric result: 0.011

Now examine the next entry.
Q: Need Kd, item Cc1nc2c(N)cc(N3CCOCC3)nn2c1Nc1cccc(C(F)(F)F)c1CN1CCC(O)C1 (stereo not shown) [Compound 77]
Ans: 0.047

====

Here the recorded pKd is given for each entry.
Biological target: PIK3Cγ_h (Homo sapiens (Human), UniProt P48736)
Sequence (P48736 whole entry): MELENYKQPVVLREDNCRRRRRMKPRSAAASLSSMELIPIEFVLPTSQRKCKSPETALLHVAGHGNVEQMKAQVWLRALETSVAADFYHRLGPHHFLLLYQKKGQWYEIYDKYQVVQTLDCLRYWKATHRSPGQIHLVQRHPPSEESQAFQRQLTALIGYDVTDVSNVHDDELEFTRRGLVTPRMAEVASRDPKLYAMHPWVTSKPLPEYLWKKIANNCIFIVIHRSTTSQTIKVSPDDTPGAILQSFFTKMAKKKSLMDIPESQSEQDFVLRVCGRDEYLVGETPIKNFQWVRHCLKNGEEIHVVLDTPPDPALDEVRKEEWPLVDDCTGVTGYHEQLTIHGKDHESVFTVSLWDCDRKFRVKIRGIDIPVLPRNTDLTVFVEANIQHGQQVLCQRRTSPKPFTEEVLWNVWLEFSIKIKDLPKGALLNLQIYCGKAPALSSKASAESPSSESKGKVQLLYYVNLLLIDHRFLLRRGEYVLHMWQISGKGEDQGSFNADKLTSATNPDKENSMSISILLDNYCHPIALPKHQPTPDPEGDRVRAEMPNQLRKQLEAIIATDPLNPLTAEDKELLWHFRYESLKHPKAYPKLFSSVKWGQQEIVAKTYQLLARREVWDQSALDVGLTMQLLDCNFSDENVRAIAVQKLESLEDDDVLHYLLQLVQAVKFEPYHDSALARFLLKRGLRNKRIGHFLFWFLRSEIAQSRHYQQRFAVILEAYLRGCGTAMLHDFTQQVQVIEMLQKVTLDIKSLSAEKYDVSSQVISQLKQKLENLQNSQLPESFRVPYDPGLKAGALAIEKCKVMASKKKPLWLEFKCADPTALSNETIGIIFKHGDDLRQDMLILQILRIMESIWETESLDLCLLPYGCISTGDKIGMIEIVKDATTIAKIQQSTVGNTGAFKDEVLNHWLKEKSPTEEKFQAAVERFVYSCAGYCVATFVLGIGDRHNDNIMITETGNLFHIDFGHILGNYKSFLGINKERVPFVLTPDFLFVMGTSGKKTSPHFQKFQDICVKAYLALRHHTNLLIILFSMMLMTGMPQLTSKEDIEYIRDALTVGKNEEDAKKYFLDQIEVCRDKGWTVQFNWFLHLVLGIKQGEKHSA
Remember, pKd is on a log scale: it is -log10 of the molar concentration.

record smiles: Cc1nc2c(N)cc(N3CCOCC3)nn2c1Nc1cccc(C(F)(F)F)c1CN1CC(O)C1
target or test system: PIK3Cγ_h (Homo sapiens (Human), UniProt P48736)
pKd: 5.32

Q: State the recorded pKd for this entry: Cc1c(F)cccc1Cc1c(CNCCO)nc2c(N)cc(N3CCOCC3)nn12
Ans: 5.43

Q: Entry under review: Cc1nc2c(N)cc(N3CCOCC3)nn2c1Nc1cccc(C(F)(F)F)c1CN1CCOCC1 . Reported pKd?
Ans: 4.89

====

log10 of Kd tested on UniProt:P42336: recorded values
Sequence (P42336 whole entry): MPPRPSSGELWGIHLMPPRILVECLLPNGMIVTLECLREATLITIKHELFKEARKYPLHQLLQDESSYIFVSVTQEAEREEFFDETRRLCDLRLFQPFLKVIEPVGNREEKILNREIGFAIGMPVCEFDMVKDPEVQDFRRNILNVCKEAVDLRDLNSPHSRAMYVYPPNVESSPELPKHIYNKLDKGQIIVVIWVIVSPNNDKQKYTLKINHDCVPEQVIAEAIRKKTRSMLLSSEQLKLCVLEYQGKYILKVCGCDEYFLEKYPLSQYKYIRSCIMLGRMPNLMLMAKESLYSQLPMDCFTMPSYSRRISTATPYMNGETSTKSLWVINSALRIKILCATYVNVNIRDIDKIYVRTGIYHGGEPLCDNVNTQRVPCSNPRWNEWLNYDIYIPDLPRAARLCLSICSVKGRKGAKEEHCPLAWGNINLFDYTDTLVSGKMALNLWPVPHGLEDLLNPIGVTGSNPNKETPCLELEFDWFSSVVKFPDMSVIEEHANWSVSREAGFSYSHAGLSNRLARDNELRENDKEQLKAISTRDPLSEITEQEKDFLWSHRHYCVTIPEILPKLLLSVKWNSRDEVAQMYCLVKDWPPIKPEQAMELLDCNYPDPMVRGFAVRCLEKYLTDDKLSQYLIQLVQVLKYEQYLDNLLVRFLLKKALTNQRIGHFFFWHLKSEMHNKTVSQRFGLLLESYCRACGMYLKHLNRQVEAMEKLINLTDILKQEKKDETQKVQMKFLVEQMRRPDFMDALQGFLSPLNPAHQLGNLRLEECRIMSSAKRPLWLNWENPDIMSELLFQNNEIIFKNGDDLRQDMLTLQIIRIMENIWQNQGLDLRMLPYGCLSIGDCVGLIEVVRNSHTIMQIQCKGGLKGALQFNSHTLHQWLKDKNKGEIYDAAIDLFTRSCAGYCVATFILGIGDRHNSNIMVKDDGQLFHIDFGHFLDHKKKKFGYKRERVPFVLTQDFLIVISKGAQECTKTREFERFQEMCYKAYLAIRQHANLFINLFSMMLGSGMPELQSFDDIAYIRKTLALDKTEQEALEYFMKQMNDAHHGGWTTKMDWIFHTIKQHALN
All values: base-10 log of Kd in µM.

Consider the reported log10 of Kd for these molecules:
molecule: Cc1c(Cc2c(CCO)nc3c(-c4c[nH]cn4)cc(N4CCOCC4)nn23)cccc1C(F)(F)F [Compound 24]
measurement name: log10 of Kd
numeric result: 0.05
//
molecule: Cc1c(Cc2c(CO)nc3c(C(N)=O)cc(N4CCOCC4)nn23)cccc1C(F)(F)F [Compound 15]
measurement name: log10 of Kd
numeric result: 0.04
//
molecule: Cc1c(F)cccc1Cc1c(CNCCO)nc2c(N)cc(N3CCOCC3)nn12 [Compound 97]
measurement name: log10 of Kd
numeric result: 1.05
//
molecule: Cc1nc2c(N)cc(N3CCOCC3)nn2c1Nc1ccccc1CN1CCOCC1 [Compound 69]
measurement name: log10 of Kd
numeric result: 0.73
//
molecule: Nc1cc(N2CCOCC2)nn2c(Cc3cccc(C(F)(F)F)c3C3CCN(CCO)CC3)c(CO)nc12 [Compound 105]
measurement name: log10 of Kd
numeric result: 1.42

Now for a further molecule.
Q: // map Cc1nc2c(N)cc(N3CCOCC3)nn2c1Nc1cccc(F)c1CNC(C)CO (centres unmarked) [Compound 71] to recorded log10 of Kd (system: UniProt:P42336)
Ans: 1.23

====

Target: PIK3Cγ_h (Homo sapiens (Human), UniProt P48736)
measurement name: pKd
Reminder that pKd means the negative base-10 logarithm of the concentration expressed in mol/L.

compound: Cc1c(Cc2c(CNCCO)nc3c(N)cc(N4CCOCC4)nn23)cccc1C(F)(F)F [Compound 3]
pKd: 4.81

Q: Field: pKd (PIK3Cγ_h (Homo sapiens (Human), UniProt P48736)). Entry: Cc1nc2c(-c3cnc[nH]3)cc(N3CCOCC3)nn2c1Cc1cccc(C(F)(F)F)c1C [Compound 5]
Ans: 4.99

Q: Form entry - test system: PIK3Cγ_h (Homo sapiens (Human), UniProt P48736); read-out: pKd; compound: Cc1c(Cc2c(CCO)nc3c(-c4c[nH]cn4)cc(N4CCOCC4)nn23)cccc1C(F)(F)F [Compound 24]
Ans: 5.47

Q: Request body: readout pKd, system PIK3Cγ_h (Homo sapiens (Human), UniProt P48736), query Cc1c(Cc2c(C(C)O)nc3c(N)cc(N4CCOCC4)nn23)cccc1C(F)(F)F (stereo not drawn) [Compound 32] . Return the value.
Ans: 4.92

Q: Provide the documented pKd with PIK3Cγ_h (Homo sapiens (Human), UniProt P48736) as the system for Cc1nc2c(N)cc(N3CCOCC3)nn2c1Nc1cccc(C(F)(F)F)c1CN1CCCC1 [Compound 62]
Ans: 4.52

====

Target: PIK3Cβ_h (Homo sapiens (Human))
Assay: KINOMEscan enzyme binding assay, PIK3Cβ
Details: DiscoveRx
// reported pKd per item
Keep it numeric: pKd is minus log10 of the concentration in mol/L.

Q: Reported pKd for Cc1c(Cc2c(CO)nc3c(N)cc(N4CCOCC4)nn23)cccc1C(F)(F)F [Compound 14c] : what is it?
Ans: 8.92

Q: Name the reported pKd value associated with the compound Cc1nc2c(-c3c[nH]cn3)cc(N3CCOCC3)nn2c1Nc1cccc(F)c1C
Ans: 8.89

Q: Bench note: what pKd did Cc1c(Cc2c(CO)nc3c(N)cc(N4CCOCC4)nn23)cccc1C(F)(F)F [Compound 14a] show?
Ans: 8.92

Q: Name the recorded pKd for Nc1cc(N2CCOCC2)nn2c(Cc3cccc(C(F)(F)F)c3C3CCNCC3)c(CO)nc12 .
Ans: 9.15

Q: Would you kindly share the measured pKd for Cc1nc2c(N)cc(N3CCOCC3)nn2c1Nc1cccc(F)c1C ?
Ans: 8.82
